Data credit: paper PMC4971072

Test system: normal ECG in rats
test.details: The effect on normal electrocardiogram in rats
Format: in vivo, rat
details: anesthetized rats, i.p. at ED84; 15 min
Procedure: The experiment was carried out to exclude the influence of tested compounds on normal ECG. […] The influence on QRS complex, PQ interval, heart rate (RR), and QTc interval was determined.
Values of QT (ECG) strictly less than 80 ms map to True, and values of at least 80 ms map to False.

QUERY: Take the molecule COc1ccccc1N1CCN(CCOCCOc2c(C)cccc2C)CC1.Cl [HBK-14] and say whether its QT (ECG) is less than 80 ms.
RESULT: False

QUERY: Take the molecule COc1ccccc1N1CCN(CCCOc2cc(C)ccc2Cl)CC1 [HBK-16] and say whether its QT (ECG) is less than 80 ms.
RESULT: True

QUERY: Take the molecule COc1ccccc1N1CCN(CCCOc2c(C)cc(C)cc2C)CC1 [HBK-18] and say whether its QT (ECG) is less than 80 ms.
RESULT: True

QUERY: Take the molecule COc1ccccc1N1CCN(CCOCCOc2c(C)cccc2Cl)CC1.Cl [HBK-15] and say whether its QT (ECG) is less than 80 ms.
RESULT: False

---

So I've got a bunch of molecules here, and I need their Beats/min (ECG) values.
System: normal ECG in rats
test.details: The effect on normal electrocardiogram in rats
Format: in vivo, rat
details: anesthetized rats, i.p. at ED84; 40 min
Express it in Beats/min; write the number only.

Form field Beats/min (ECG), entry COc1ccccc1N1CCN(CCCOc2cc(C)cc(C)c2C)CC1 : 332.8

Form field Beats/min (ECG), entry COc1ccccc1N1CCN(CCOCCOc2c(C)cccc2C)CC1.Cl : 362.6

Form field Beats/min (ECG), entry COc1ccccc1N1CCN(CCOCCOc2c(C)cccc2Cl)CC1.Cl : 339.5

---

Tested on: normal ECG in rats
test.details: The effect on normal electrocardiogram in rats
Format: in vivo, rat
details: anesthetized rats, i.p. at ED84; 20 min
Description: The experiment was carried out to exclude the influence of tested compounds on normal ECG. […] The influence on QRS complex, PQ interval, heart rate (RR), and QTc interval was determined.
metric.name: Beats/min (ECG) (Beats/min)
Express it in Beats/min; write the number only.

Form field Beats/min (ECG), entry COc1ccccc1N1CCN(CCCOc2cc(C)ccc2Cl)CC1 [HBK-16] : 310.6

Form field Beats/min (ECG), entry COc1ccccc1N1CCN(CCOCCOc2c(C)cccc2C)CC1.Cl [HBK-14] : 358.4

Form field Beats/min (ECG), entry COc1ccccc1N1CCN(CCOCCOc2c(C)cccc2Cl)CC1.Cl [HBK-15] : 327.6

---

Tested on: normal ECG in rats
test.details: The effect on normal electrocardiogram in rats
Type: in vivo, rat
details: anesthetized rats, i.p. at ED84; 60 min
Marks after values point to notes of the source that are not given here.
metric.name: Beats/min (ECG)

Form field Beats/min (ECG), entry COc1ccccc1N1CCN(CCCOc2cc(C)ccc2Cl)CC1 : 288.0 ± 13.8^b Beats/min

Form field Beats/min (ECG), entry COc1ccccc1N1CCN(CCOCCOc2c(C)cccc2Cl)CC1.Cl : 351.8 ± 15.0 Beats/min

Form field Beats/min (ECG), entry COc1ccccc1N1CCN(CCOCCOc2c(C)cccc2C)CC1.Cl : 364.6 ± 11.2 Beats/min

Form field Beats/min (ECG), entry COc1ccccc1N1CCN(CCCOc2cc(C)cc(C)c2C)CC1 : 398.0 ± 32.4 Beats/min

Form field Beats/min (ECG), entry COc1ccccc1N1CCN(CCCOc2c(C)cc(C)cc2C)CC1 : 252.3 ± 25.1^c Beats/min

---

Tested on: normal ECG in rats
test.details: The effect on normal electrocardiogram in rats
Type: in vivo, rat
details: anesthetized rats, i.p. at ED84; 40 min
So I've got a bunch of compounds here, and I need their QTc (ECG, Bazett) values.
Express it in ms; write the number only.

Form field QTc (ECG, Bazett), entry COc1ccccc1N1CCN(CCCOc2c(C)cc(C)cc2C)CC1 : 160.4

Form field QTc (ECG, Bazett), entry COc1ccccc1N1CCN(CCCOc2cc(C)cc(C)c2C)CC1 : 192.2

Form field QTc (ECG, Bazett), entry COc1ccccc1N1CCN(CCOCCOc2c(C)cccc2Cl)CC1.Cl : 206.5

Form field QTc (ECG, Bazett), entry COc1ccccc1N1CCN(CCOCCOc2c(C)cccc2C)CC1.Cl : 214.1

Form field QTc (ECG, Bazett), entry COc1ccccc1N1CCN(CCCOc2cc(C)ccc2Cl)CC1 : 118.9

---

Test system: blood pressure in normotensive rats
test.details: Influence on blood pressure in normotensive rats
Format: in vivo, rat
details: anesthetized normotensive rats, lowest hypotensive dose i.p.; 30 min
Marks after values point to notes of the source that are not given here.
So I've got a bunch of compounds here, and I need their Diastolic pressure values.

Form: item COc1ccccc1N1CCN(CCCOc2cc(C)cc(C)c2C)CC1 ; test system blood pressure in normotensive rats; Diastolic pressure: 87.0 ± 2.9^c

Form: item COc1ccccc1N1CCN(CCCOc2c(C)cc(C)cc2C)CC1 ; test system blood pressure in normotensive rats; Diastolic pressure: 78.3 ± 7.2^a

Form: item COc1ccccc1N1CCN(CCOCCOc2c(C)cccc2Cl)CC1.Cl ; test system blood pressure in normotensive rats; Diastolic pressure: 88.3 ± 2.9^c

Form: item COc1ccccc1N1CCN(CCCOc2cc(C)ccc2Cl)CC1 ; test system blood pressure in normotensive rats; Diastolic pressure: 89.8 ± 5.2^a

Form: item COc1ccccc1N1CCN(CCOCCOc2c(C)cccc2C)CC1.Cl ; test system blood pressure in normotensive rats; Diastolic pressure: 95.2 ± 6.1^c

---

Test system: normal ECG in rats
test.details: The effect on normal electrocardiogram in rats
Assay type: in vivo, rat
details: anesthetized rats, i.p. at ED84; 5 min
Description: The experiment was carried out to exclude the influence of tested compounds on normal ECG. […] The influence on QRS complex, PQ interval, heart rate (RR), and QTc interval was determined.
metric.name: Beats/min (ECG)
Number first, unit second: that is the form wanted.

Form field Beats/min (ECG), entry COc1ccccc1N1CCN(CCCOc2cc(C)ccc2Cl)CC1 [HBK-16] : 331.4 ± 12.5 Beats/min

Form field Beats/min (ECG), entry COc1ccccc1N1CCN(CCOCCOc2c(C)cccc2C)CC1.Cl [HBK-14] : 369.8 ± 10.0 Beats/min

Form field Beats/min (ECG), entry COc1ccccc1N1CCN(CCCOc2c(C)cc(C)cc2C)CC1 [HBK-18] : 306.9 ± 9.0 Beats/min

Form field Beats/min (ECG), entry COc1ccccc1N1CCN(CCCOc2cc(C)cc(C)c2C)CC1 [HBK-19] : 349.7 ± 25.3 Beats/min

Form field Beats/min (ECG), entry COc1ccccc1N1CCN(CCOCCOc2c(C)cccc2Cl)CC1.Cl [HBK-15] : 365.4 ± 15.3 Beats/min

---

Tested on: normal ECG in rats
test.details: The effect on normal electrocardiogram in rats
Assay type: in vivo, rat
details: anesthetized rats, i.p. at ED84; 15 min
Marks after values point to notes of the source that are not given here.
metric.name: Beats/min (ECG)

Form field Beats/min (ECG), entry COc1ccccc1N1CCN(CCCOc2cc(C)ccc2Cl)CC1 : 319.4 ± 10.3 Beats/min

Form field Beats/min (ECG), entry COc1ccccc1N1CCN(CCOCCOc2c(C)cccc2Cl)CC1.Cl : 333.9 ± 12.4 Beats/min

Form field Beats/min (ECG), entry COc1ccccc1N1CCN(CCCOc2cc(C)cc(C)c2C)CC1 : 280.1 ± 1.1^c Beats/min

Form field Beats/min (ECG), entry COc1ccccc1N1CCN(CCCOc2c(C)cc(C)cc2C)CC1 : 284.7 ± 7.6^a Beats/min

Form field Beats/min (ECG), entry COc1ccccc1N1CCN(CCOCCOc2c(C)cccc2C)CC1.Cl : 359.8 ± 9.5 Beats/min

---

Test system: blood pressure in normotensive rats
test.details: Influence on blood pressure in normotensive rats
Type: in vivo, rat
details: anesthetized normotensive rats, lowest hypotensive dose i.p.; 20 min
Marks after values point to notes of the source that are not given here.
metric.name: Systolic pressure

Form field Systolic pressure, entry COc1ccccc1N1CCN(CCCOc2c(C)cc(C)cc2C)CC1 : 96.5 ± 8.9^b

Form field Systolic pressure, entry COc1ccccc1N1CCN(CCOCCOc2c(C)cccc2C)CC1.Cl : 127.3 ± 6.6^c

Form field Systolic pressure, entry COc1ccccc1N1CCN(CCOCCOc2c(C)cccc2Cl)CC1.Cl : 112.0 ± 5.5^c

Form field Systolic pressure, entry COc1ccccc1N1CCN(CCCOc2cc(C)cc(C)c2C)CC1 : 111.5 ± 3.2^c

Form field Systolic pressure, entry COc1ccccc1N1CCN(CCCOc2cc(C)ccc2Cl)CC1 : 114.8 ± 2.0^b
